test_target: mSAA3-W71A (Mus musculus, UniProt P04918, W71A)
Construct: hexa-histidine tag followed by thrombin cleavage site (N, cleaved yes); made in house; host or cells: Escherichia coli BL21-CodonPlus (DE3)-RILP
Sequence (P04918 19-122 W71A): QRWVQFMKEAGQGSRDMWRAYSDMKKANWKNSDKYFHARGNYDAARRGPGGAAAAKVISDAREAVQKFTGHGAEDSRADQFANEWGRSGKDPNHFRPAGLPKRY
measurement_description: Retinol binding assay, mSAA3-W71A mutant
observable: pKd
Recall that pKd is obtained by taking minus log10 of the concentration measured in molar.

IN: Give a short answer stating reported pKd for `CC1=C(/C=C/C(C)=C/C=C/C(C)=C/CO)C(C)(C)CCC1` .
OUT: 6.30

###

test_target: recombinant human SAA1 (hSAA1) (Homo sapiens, UniProt P0DJI8, D78N/H89R)
Construct: corresponding to human apo-SAA1α except for the presence of an N-terminal methionine; purchased PeproTech (Rocky Hill, NJ)
Sequence (P0DJI8 19-122 D78N/H89R): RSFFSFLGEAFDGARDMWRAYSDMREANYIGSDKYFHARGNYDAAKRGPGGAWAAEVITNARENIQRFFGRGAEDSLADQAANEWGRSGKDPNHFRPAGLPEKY
measurement_description: Fluorometric retinoid binding assay, hSAA1
condition_context: all-trans-retinol titration, retinol fluorescence, excitation 348 nm, emission 460 nm, PBS, 0.5 μM protein
Method: Retinoic acid lacks intrinsic fluorescence but can quench inherent protein fluorescence due to energy transfer from tryptophan residues ([Cogan et al., 1976]). We therefore measured retinoic acid binding using a modified fluorescence assay that monitored quenching of protein fluorescence (Figure 2C). Steady state fluorescence was measured using a QuantaMaster 40 spectrofluorometer (Photon Technology International, Edison, NJ) and FelixGX software program. […]
observable: Kd (nM)
Could you give me the number in nM? Just the number is fine.

IN: Identify measured Kd obtained with recombinant human SAA1 (hSAA1) (Homo sapiens, UniProt P0DJI8, D78N/H89R) for `CC1=C(/C=C/C(C)=C/C=C/C(C)=C/CO)C(C)(C)CCC1` .
OUT: 259

Value source: paper PMC4129439
